Numbers sourced from paper PMC3961306.

biological target: panel of more than 300 wild-type and mutant kinases (313 kinase panel) (Homo sapiens, UniProt Q12866); test: Kinase profiling in a biochemical assay panel (mobility shift assays and ELISA), %-inhibition at 1 μM; selectivity entropy; settings: kinase MER; compound at 1 μM
Sequence (Q12866 21-999, change not shown): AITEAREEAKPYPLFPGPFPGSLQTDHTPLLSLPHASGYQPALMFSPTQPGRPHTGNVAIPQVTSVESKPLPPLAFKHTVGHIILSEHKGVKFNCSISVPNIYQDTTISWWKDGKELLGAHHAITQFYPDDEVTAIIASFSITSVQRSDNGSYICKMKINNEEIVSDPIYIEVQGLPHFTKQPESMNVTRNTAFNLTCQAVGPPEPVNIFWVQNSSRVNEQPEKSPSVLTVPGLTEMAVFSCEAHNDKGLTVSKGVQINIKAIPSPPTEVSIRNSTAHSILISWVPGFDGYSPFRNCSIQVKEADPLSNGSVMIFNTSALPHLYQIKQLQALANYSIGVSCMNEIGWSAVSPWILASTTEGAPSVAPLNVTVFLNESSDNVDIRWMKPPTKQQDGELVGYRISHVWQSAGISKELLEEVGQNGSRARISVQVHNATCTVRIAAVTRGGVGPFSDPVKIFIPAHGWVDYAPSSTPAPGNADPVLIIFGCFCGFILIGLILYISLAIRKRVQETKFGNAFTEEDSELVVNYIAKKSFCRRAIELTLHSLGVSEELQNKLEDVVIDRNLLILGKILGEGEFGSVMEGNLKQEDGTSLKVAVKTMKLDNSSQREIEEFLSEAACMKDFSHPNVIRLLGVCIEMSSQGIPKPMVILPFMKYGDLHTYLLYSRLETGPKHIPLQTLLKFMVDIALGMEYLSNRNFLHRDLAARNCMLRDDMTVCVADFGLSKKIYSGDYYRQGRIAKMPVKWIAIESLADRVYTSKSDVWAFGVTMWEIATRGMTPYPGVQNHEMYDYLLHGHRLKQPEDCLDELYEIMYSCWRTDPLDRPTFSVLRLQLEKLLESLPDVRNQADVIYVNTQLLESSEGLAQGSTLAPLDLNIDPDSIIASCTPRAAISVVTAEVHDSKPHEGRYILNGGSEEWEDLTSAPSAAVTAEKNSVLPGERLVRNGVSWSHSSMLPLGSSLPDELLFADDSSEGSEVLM
Parameter: %-inhibition of MER. Scope: all listed entries.
State just the number; it will be interpreted in %.

# annotated cases, reported %-inhibition of MER shown
Which value of %-inhibition of MER has been reported for Cc1ccc(Nc2nccc(N(C)c3ccc4c(C)n(C)nc4c3)n2)cc1S(N)(=O)=O [pazopanib] in the records?
34

Which value of %-inhibition of MER has been reported for COc1cc2nccc(Oc3ccc(NC(=O)C4(C(=O)Nc5ccc(F)cc5)CC4)cc3)c2cc1OC [cabozantinib] in the records?
100

Which value of %-inhibition of MER has been reported for CO[C@H]1C[C@@H]2CC[C@@H](C)[C@@](O)(O2)C(=O)C(=O)N2CCCC[C@H]2C(=O)O[C@H]([C@H](C)C[C@@H]2CC[C@@H](OCCO)[C@H](OC)C2)CC(=O)[C@H](C)/C=C(\C)[C@@H](O)[C@@H](OC)C(=O)[C@H](C)C[C@H](C)/C=C/C=C/C=C/1C [everolimus] in the records?
-4.24

Which value of %-inhibition of MER has been reported for CCCS(=O)(=O)Nc1ccc(F)c(C(=O)c2c[nH]c3ncc(-c4ccc(Cl)cc4)cc23)c1F [vemurafenib] in the records?
6

Which value of %-inhibition of MER has been reported for CNC(=O)c1cc(Oc2ccc(NC(=O)Nc3ccc(Cl)c(C(F)(F)F)c3)c(F)c2)ccn1 [regorafenib] in the records?
29

Kindly review the next compound as well.
Which value of %-inhibition of MER has been reported for O=S(=O)(c1cccc2cnccc12)N1CCCNCC1 [fasudil] in the records?
-2.34
